# TARGET_ENTITY: T1, human serum albumin (HSA) (human, UniProt P02768 25-609, biotinylated)
# T1 construct: also called biotinylated HSA
# METHOD: competition SPA on biotinylated HSA, 125I acylated GLP-1 tracer;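 also: streptavidin SPA beads carrying biotinylated HSA, competition incubated 20 h at room temperature, plates then read on a TopCount counter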
pEC50: −log10 of the molar value. Starred links: 1 amine or outer side, 2 acyl side, 3 side chain; linkers in the order of their positions; H or OH if unused. Non-standard residues stand in square brackets, D forms with d. Groups on a side chain read outwards from the residue. Primed or numbered codes have the meaning given here. No end group written: not given here. *: point of attachment. C20 diacid = O=C(O)CCCCCCCCCCCCCCCCCCC(=O)*; γGlu = O=C(O)[C@H](CCC(=O)[*:2])N[*:1]; Desaminohistidyl = O=C(CCc1c[nH]cn1)*; Trx = NC[C@H]1CC[C@H](C(=O)O)CC1; Trx′ = not defined here; AEEA = NCCOCCOCC(=O)O; Aib = CC(C)(N)C(=O)O; Inp = O=C(O)C1CCNCC1
MEASURED_METRIC: pEC50

The cases that follow already have their pEC50 on record.
[
  {
    "BINDER": "HAEGTFTSDVSSYLEEQAAREFIAWLVRGRK (desaminoHis7; Lys37 is bound to the peptide via its epsilon amino group (epsilon-Lys37); its N-alpha carries the acyl side chain printed in the name)",
    "pEC50": "7.00 to 9.00"
  },
  {
    "BINDER": "[Desaminohistidyl]AEGTFTSDVSSYLEGQAAREFIAWLVRGRGK([AEEA-AEEA-γGlu-Inp-C20 diacid]) [[DesaminoHis7,Arg26,34]-GLP-1 …]",
    "pEC50": "< 5.70"
  },
  {
    "BINDER": "H[Aib]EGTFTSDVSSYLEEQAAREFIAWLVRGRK-NH2 (not fully specified (residue 31); printed as N-epsilon37{2-[2-(2-{2-[2-((S)-3-carboxy-3-{[1-(19-carboxynonadecanoyl)piperidine-4-carbonyl]amino}propionylamino)ethoxy]ethoxy}acetylamino)ethoxy]ethoxy}acetyl [Aib8,Glu22,Arg26,Arg34,Lys37]GLP-1-(7-37)amide)",
    "pEC50": "6.10 to 6.52"
  },
  {
    "BINDER": "H[Aib]EGTFTSDVSSYLEEQAAKEFIAWLVQGRG (not fully specified (residue 20); printed as N-epsilon26-[2-(2-[2-(2-[2-(2-((R)-3-[trans-4-((9-Carboxynonadecanoylamino]methyl)cyclohexylcarbonylamino]3-carboxypropionylamino)ethoxy)ethoxy]acetylamino)ethoxy]ethoxy)acetyl][Aib8, Glu22, Gln34]GLP-1-(7-37))",
    "pEC50": "6.82 to 7.00"
  },
  {
    "BINDER": "HAEGTFTSDVSSYLEEQAAREFIEWLVKGRPK (Aib8; the added C-terminal Lys carries the acyl side chain printed in the name) [[Aib8,Glu22,Arg26,Glu30,Pro37]GLP-1-(7-37)Lys …]",
    "pEC50": "6.52 to 6.82"
  },
  {
    "BINDER": "HAEGTFTSDVSSYLEEQAAREFIAWLVRGRGK (ImPr7 (imidazopropionic acid = des-amino-histidine); the added C-terminal Lys carries the acyl side chain printed in the name; C-terminal amide)",
    "pEC50": "7.00 to 9.00"
  },
  {
    "BINDER": "{2‑(4-imidazolyl)acetyl}-AEGTFTSDVSSYLEEQAAREFIAWLVRGRK([AEEA-AEEA-γGlu-Trx′-C20 diacid]) (reading uncertain; also: printed as N-alpha8-[2-(4-imidazolyl)acetyl] N-epsilon37-[2-(2-{2-[2-(2-{2-[(S)-4-Carboxy-4-({trans-4-[(19-carboxynonadecanoylamino)methyl]cyclohexanecarbonyl}amino)butyrylamino]ethoxy}ethoxy)acetylamino]ethoxy}ethoxy)acetyl][Glu22,Arg26,Arg34,Lys37]GLP-1-(8-37), GLP-1-(8-37) = residues 2-31 of the entry) [N-alpha8-[2-(4-imidazolyl)acetyl] …]",
    "pEC50": "6.52 to 6.82"
  },
  {
    "BINDER": "HAEGTFTSDVSSYLEEQAAREFIAWLVRGRK (Aib8; Lys37 N-epsilon carries the acyl side chain printed in the name)",
    "pEC50": "7.00 to 9.00"
  },
  {
    "BINDER": "HAEGTFTSDVSKYLEEQAAKEFIAWLVQGRG (not fully specified; Aib8; Lys18 N-epsilon carries the acyl side chain printed in the name)",
    "pEC50": "5.70 to 6.10"
  },
  {
    "BINDER": "HAEGTFTSDVSSYLEEQAAREFIAWLVRGRK (Aib8; Lys37 N-epsilon carries the acyl side chain printed in the name; C-terminal amide)",
    "pEC50": "5.70 to 6.10"
  }
]

Lab note: measured pEC50 of H[Aib]EGTFTSDVSKYLE[Aib]QAAREFIAWLVR[Aib]RG (not fully specified (residue 12); printed as N-epsilon 18-[2-(2-[2-(2-[2-(2-((R)-3-[trans-4-((9-Carboxynonadecanoylamino]methyl)cyclohexylcarbonylamino]3-carboxypropionylamino)ethoxy)ethoxy]acetylamino)ethoxy]ethoxy)acetyl][Aib8, 22,35, Lys18, Arg26,34]GLP-1-(7-37)) was 5.70 to 6.10

Lab note: measured pEC50 of HAEGTFTSDVSSYLEGQAAKEFIAWLKR (Aib8; N-epsilon26 (so in the source) carries the acyl side chain printed in the name, GLP-1-(7-34) = residues 1-28 of the entry) was 7.00 to 9.00

Lab note: measured pEC50 of H[Aib]EGTFTSDVSSYLEEQAAREFIAKLVKGRG (not fully specified (residue 25); printed as N-epsilon31{2-[2-(2-{2-[2-((S)-3-carboxy-3-{[1-(19-carboxynonadecanoyl)piperidine-4-carbonyl]amino}propionylamino)ethoxy]ethoxy}acetylamino)ethoxy]ethoxy}acetyl [Aib8, Glu22, Arg26,Lys 31]GLP-1-(7-37)) was 6.82 to 7.00

Lab note: measured pEC50 of H[Aib]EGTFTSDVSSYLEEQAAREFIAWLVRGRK([AEEA-AEEA-γGlu-Trx-C20 diacid])-NH2 was 5.70 to 6.10
